Data origin: ChEMBL document CHEMBL3885861

species: Rattus norvegicus; test: Open TG-GATES - Regimen: Daily Repeat; assay type: toxicity, organism-based, Sprague-Dawley; design: regimen Daily Repeat, gender Male, age 6 weeks; details: in vivo, po, 100 mg/kg, […], tissue Blood, route gavage, dose level Low, time 14 day
value.type: PT (s)
Numeric only. Scale: s

Below, 3 molecules whose answers are already recorded.
{"columns": ["molecule", "endpoint.unit", "PT"],
 "data": [
  ["CC(S)C(=O)NCC(=O)O (centres undefined)", "s", 15.6],
  ["CC(=O)[C@@]1(O)CC[C@H]2[C@@H]3C=C(Cl)C4=CC(=O)CC[C@]4(C)[C@H]3CC[C@@]21C", "s", 15.2],
  ["O=C(O)c1ccccc1Nc1ccccc1", "s", 13.7]
]}

Please examine the following record next.
Prompt: Look up PT: CCCCNC(=O)NS(=O)(=O)c1ccc(C)cc1 [TOLBUTAMIDE]
Response: 13.2

* * *

organism: Rattus norvegicus; assay: Open TG-GATES - Regimen: Daily Repeat; assay type: toxicity, organism-based, Sprague-Dawley; design: regimen Daily Repeat, gender Male, age 6 weeks; conditions: in vivo, po, 0 mg/kg, […], tissue Blood, route gavage, dose level Control, time 14 day
Catalogue of compounds with associated Eos
Give the number; % is assumed, so skip it.

Would you please look over these solved cases?
{"columns": ["compound", "endpoint.unit", "Eos"],
 "data": [
  ["CCN(CC)C(=S)SSC(=S)N(CC)CC", "%", 1],
  ["CC(=O)[C@@]1(O)CC[C@H]2[C@@H]3C=C(Cl)C4=CC(=O)CC[C@]4(C)[C@H]3CC[C@@]21C [CHLORMADINONE]", "%", 0.8],
  ["COc1ccc([C@@H]2Sc3ccccc3N(CCN(C)C)C(=O)[C@@H]2OC(C)=O)cc1 [DILTIAZEM]", "%", 0.6],
  ["CCO [ALCOHOL]", "%", 1],
  ["O=c1ccc2ccccc2o1 [COUMARIN]", "%", 0.6]
]}

Prompt: Look at this compound and give its reported Eos. O=C(O)c1ccccc1Nc1ccccc1 [FENAMIC ACID]
Response: 1

Prompt: # iterate: CN(C/C=C/C#CC(C)(C)C)Cc1cccc2ccccc12 [TERBINAFINE]
Response: 0.8

Prompt: What do you have for CN(CCOc1ccc(CC2SC(=O)NC2=O)cc1)c1ccccn1.O=C(O)/C=C\C(=O)O (stereo not drawn) [ROSIGLITAZONE MALEATE] ?
Response: 1

Prompt: Similarly, CC(S)C(=O)NCC(=O)O (stereo not drawn) [TIOPRONIN] ?
Response: 1

Prompt: Next compound up: CCCCNC(=O)NS(=O)(=O)c1ccc(C)cc1 [TOLBUTAMIDE]
Response: 1

Prompt: And for Nc1ccc(Cc2ccc(N)cc2)cc1 ?
Response: 1

Prompt: Item: CCCCC1C(=O)N(c2ccccc2)N(c2ccccc2)C1=O [PHENYLBUTAZONE]
Response: 0.6

Prompt: // next record NS(=O)(=O)c1cc(C(=O)O)c(NCc2ccco2)cc1Cl [FUROSEMIDE]
Response: 1

* * *

species on record: Rattus norvegicus; experiment: Open TG-GATES - Regimen: Daily Repeat; format: toxicity, organism-based, Sprague-Dawley; design: regimen Daily Repeat, gender Male, age 6 weeks; settings: in vivo, po, 0 mg/kg, […], tissue Liver, route gavage, dose level Control, time 14 day
Property: LIVER; scope: individual compounds
Give the value in g but do not write g after it.

Answered examples (3):
{"columns": ["compound", "value.type", "data.value"],
 "data": [
  ["O=C(O)c1ccccc1Nc1ccccc1", "LIVER", 14.7],
  ["CC(=O)[C@@]1(O)CC[C@H]2[C@@H]3C=C(Cl)C4=CC(=O)CC[C@]4(C)[C@H]3CC[C@@]21C", "LIVER", 14.3],
  ["CC(S)C(=O)NCC(=O)O (centres undefined)", "LIVER", 13.7]
]}

Prompt: Entry Nc1ccc(Cc2ccc(N)cc2)cc1 : reported LIVER = ?
Response: 14.8

Prompt: Again, but for CCO
Response: 13.2

Prompt: Here is the next compound: CCCCNC(=O)NS(=O)(=O)c1ccc(C)cc1 [TOLBUTAMIDE]
Response: 15.3

Prompt: Consider next the compound O=c1ccc2ccccc2o1 in the same way.
Response: 14

Prompt: Now try CN(C/C=C/C#CC(C)(C)C)Cc1cccc2ccccc12 .
Response: 13.3

Prompt: Now the same for CN(CCOc1ccc(CC2SC(=O)NC2=O)cc1)c1ccccn1.O=C(O)/C=C\C(=O)O (centres undefined) [ROSIGLITAZONE MALEATE]
Response: 15.7
